Source: the supplement of paper PMC7877785

assay: self-splicing fitness, log relative to wild type (ln ratio); higher = more splicing; Tetrahymena group I intron in knt gene, E. coli kanamycin selection, DiMSum; sequences stand for … in CUCUCU…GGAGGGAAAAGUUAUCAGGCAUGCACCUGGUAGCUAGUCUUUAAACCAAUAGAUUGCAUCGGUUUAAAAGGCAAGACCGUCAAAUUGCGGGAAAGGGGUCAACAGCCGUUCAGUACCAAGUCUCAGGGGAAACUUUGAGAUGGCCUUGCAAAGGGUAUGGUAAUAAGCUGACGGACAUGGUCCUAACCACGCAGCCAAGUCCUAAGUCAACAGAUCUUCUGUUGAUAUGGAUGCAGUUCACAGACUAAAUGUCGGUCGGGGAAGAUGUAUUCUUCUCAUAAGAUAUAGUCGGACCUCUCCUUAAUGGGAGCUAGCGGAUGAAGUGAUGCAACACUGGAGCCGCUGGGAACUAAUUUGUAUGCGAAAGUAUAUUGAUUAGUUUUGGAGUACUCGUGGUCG; settings: 37 °C;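 note: selection with 25 µg/mL kanamycin versus none on LB agar overnight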
Hi there, I'd appreciate the recorded self-splicing fitness (ln) for every entry that follows.

Notebook: AGCGAGCAAUAUUACGUCAG , self-splicing fitness (ln) read as -2.58

Notebook: CAGUAGCAAUAUUACGGACA , self-splicing fitness (ln) read as -2.23

Notebook: UUUAAGCAAUAUUACGUAAA , self-splicing fitness (ln) read as 0.519

Notebook: CACAAGCAAUAUUACGUGGA , self-splicing fitness (ln) read as -2.81

Notebook: AAGCAGCAAUAUUACGCGAU , self-splicing fitness (ln) read as -3.25

Notebook: UGCAAGCAAUAUUACGAGGC , self-splicing fitness (ln) read as -2.13

---

assay: self-splicing fitness, log relative to wild type (ln ratio); higher = more splicing; Tetrahymena group I intron in knt gene, E. coli kanamycin selection, DiMSum; sequences stand for … in CUCUCU…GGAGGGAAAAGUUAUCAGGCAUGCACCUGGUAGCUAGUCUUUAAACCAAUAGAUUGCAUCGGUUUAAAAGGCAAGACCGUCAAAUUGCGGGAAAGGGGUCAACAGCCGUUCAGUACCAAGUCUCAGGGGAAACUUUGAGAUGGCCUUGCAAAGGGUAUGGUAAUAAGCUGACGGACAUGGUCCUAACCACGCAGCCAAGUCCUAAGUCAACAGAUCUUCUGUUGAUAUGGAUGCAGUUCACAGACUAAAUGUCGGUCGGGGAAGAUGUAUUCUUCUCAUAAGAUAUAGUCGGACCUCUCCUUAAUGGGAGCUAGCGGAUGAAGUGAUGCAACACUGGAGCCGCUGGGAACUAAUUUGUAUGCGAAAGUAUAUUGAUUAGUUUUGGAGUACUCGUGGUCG; settings: 30 °C
observed-property: self-splicing fitness (ln)

Notebook: AACAAGCAAUAUUACGUGAA , self-splicing fitness (ln) read as -2.08

Notebook: CUAGAGCAAUAUUACGAGAA , self-splicing fitness (ln) read as -2.62

Notebook: AUCCAGCAAUAUUACGCCCC , self-splicing fitness (ln) read as -0.216

Notebook: AAUUAGCAAUAUUACGUAUG , self-splicing fitness (ln) read as -1.04

Notebook: AUCCAGCAAUAUUACGGAAU , self-splicing fitness (ln) read as -2.94

Notebook: GUUGAGCAAUAUUACGUGCU , self-splicing fitness (ln) read as -1.95

Notebook: UUCCAGCAAUAUUACGUUUA , self-splicing fitness (ln) read as -0.628

Notebook: GGUGAGCAAUAUUACGGUGA , self-splicing fitness (ln) read as -2.81

Notebook: GCUUAGCAAUAUUACGGGCG , self-splicing fitness (ln) read as -1.44

Notebook: UGUAAGCAAUAUUACGGCUC , self-splicing fitness (ln) read as -1.94

Notebook: ACCUAGCAAUAUUACGCGGG , self-splicing fitness (ln) read as -3.58

Notebook: UUACAGCAAUAUUACGAAAA , self-splicing fitness (ln) read as -2.35

Notebook: CCCGAGCAAUAUUACGUUAU , self-splicing fitness (ln) read as -3.87

Notebook: UACGAGCAAUAUUACGGCCU , self-splicing fitness (ln) read as -3.35

Notebook: GACGAGCAAUAUUACGUCGC , self-splicing fitness (ln) read as -3.25

Notebook: GGACAGCAAUAUUACGCCCG , self-splicing fitness (ln) read as -0.653

Notebook: CAGCAGCAAUAUUACGAAGA , self-splicing fitness (ln) read as -2.72

Notebook: CGUGAGCAAUAUUACGCGUG , self-splicing fitness (ln) read as -2

Notebook: CCUUAGCAAUAUUACGGCCA , self-splicing fitness (ln) read as -3.46

Notebook: AAUCAGCAAUAUUACGGACG , self-splicing fitness (ln) read as -0.448

Notebook: ACUAAGCAAUAUUACGACCU , self-splicing fitness (ln) read as -0.123

Notebook: GGAAAGCAAUAUUACGACAC , self-splicing fitness (ln) read as -0.204

Notebook: UCCAAGCAAUAUUACGAGAU , self-splicing fitness (ln) read as -3.54

Notebook: UGGAAGCAAUAUUACGUAGC , self-splicing fitness (ln) read as -2.29

Notebook: AUCUAGCAAUAUUACGAUCG , self-splicing fitness (ln) read as -3.35

Notebook: AUCAAGCAAUAUUACGAUGG , self-splicing fitness (ln) read as -3.43

Notebook: GCUAAGCAAUAUUACGCCGC , self-splicing fitness (ln) read as -2.72

Notebook: CUGUAGCAAUAUUACGAAAG , self-splicing fitness (ln) read as -1.61

Notebook: AUGCAGCAAUAUUACGUAUC , self-splicing fitness (ln) read as -4.58

Notebook: AUACAGCAAUAUUACGCUGA , self-splicing fitness (ln) read as -2.14

Notebook: GAAUAGCAAUAUUACGAGUC , self-splicing fitness (ln) read as -3.29

Notebook: GCCGAGCAAUAUUACGCCAC , self-splicing fitness (ln) read as -2.11

Notebook: GUUCAGCAAUAUUACGGUGU , self-splicing fitness (ln) read as -0.503

Notebook: AGGAAGCAAUAUUACGCGAU , self-splicing fitness (ln) read as -3.28

Notebook: GCUUAGCAAUAUUACGAUCC , self-splicing fitness (ln) read as -0.0566

Notebook: ACUUAGCAAUAUUACGAUAU , self-splicing fitness (ln) read as -1.62

Notebook: UCUAAGCAAUAUUACGGCCU , self-splicing fitness (ln) read as -3.76

Notebook: UAUAAGCAAUAUUACGGGGU , self-splicing fitness (ln) read as -2.93

Notebook: AGCGAGCAAUAUUACGUAUA , self-splicing fitness (ln) read as -3.86

Notebook: AAGUAGCAAUAUUACGAUCU , self-splicing fitness (ln) read as -0.032

Notebook: UUAGAGCAAUAUUACGGUUG , self-splicing fitness (ln) read as -1.98

Notebook: CUCCAGCAAUAUUACGACUG , self-splicing fitness (ln) read as -3.12

Notebook: AGUGAGCAAUAUUACGGUUC , self-splicing fitness (ln) read as -2.21

Notebook: GGGAAGCAAUAUUACGAGGA , self-splicing fitness (ln) read as -3.34

Notebook: GUCAAGCAAUAUUACGUAUG , self-splicing fitness (ln) read as -4.08

Notebook: UGAUAGCAAUAUUACGUUGG , self-splicing fitness (ln) read as -2.45

Notebook: GACCAGCAAUAUUACGGGUG , self-splicing fitness (ln) read as -1.85

Notebook: AUGCAGCAAUAUUACGAUUA , self-splicing fitness (ln) read as -1.32

Notebook: CCUCAGCAAUAUUACGUAUU , self-splicing fitness (ln) read as -4.06

Notebook: CUGAAGCAAUAUUACGAUUG , self-splicing fitness (ln) read as 0.168

Notebook: UAUAAGCAAUAUUACGCACC , self-splicing fitness (ln) read as -1.82

Notebook: GGCGAGCAAUAUUACGUAUG , self-splicing fitness (ln) read as -1.78

Notebook: ACCUAGCAAUAUUACGCCGC , self-splicing fitness (ln) read as -2.21

Notebook: GCAUAGCAAUAUUACGCCGU , self-splicing fitness (ln) read as -3.07
